Assay: Plasma pharmacokinetics
Format: in vivo, male BALB/c mice
Study Conditions: male, BALB/c, mouse, in vivo, iv
Numbered stars: 1 amine (or outer) side, 2 acyl side, 3 side chain; on linkers, the order of the positions; unused ones are H or OH. Bridge positions count the residues as written; N and C are the ends. Square brackets hold non-standard residues; d marks the D form. Peptide text beside a SMILES is read from it. * marks the point of attachment. Piperazine(2S-CO,4-Me) = CN1CCN[C@H](C(=O)O)C1; Phe(3-Me) = Cc1cccc(C[C@H](N)C(=O)O)c1; NH(4-Cl-2-F-phenyl) = Fc1cc(Cl)ccc1N*; Pro(4R-Me) = C[C@H]1CN[C@H](C(=O)O)C1; X1 = O=C([C@@H]1CSCCN1[*:1])[*:2]; NH(4-Et-phenyl) = CCc1ccc(N*)cc1; aThr = C[C@H](O)[C@H](N)C(=O)O; CO = O=C([*:1])[*:2]
Measure: AUC(0-t) (ng·h/mL)
Just the number please, in ng·h/mL, no unit attached.

Example entries begin here.
>  <Molecule>
CCc1ccc(NC(=O)N[C@@H](Cc2cccc(C)c2)C(=O)N[C@H]2COC(=O)[C@@H]3C[C@@H](C)CN3C(=O)[C@H](C)NC(=O)[C@@H]3CN(C)CCN3C(=O)[C@@H]3CCCN3C2=O)cc1 [Compound 16] ({NH(4-Et-phenyl)-CO}-[Phe(3-Me)]SP[Piperazine(2S-CO,4-Me)]A[Pro(4R-Me)]; ester 2-C)

>  <AUC(0-t) / ng·h/mL>
3760

$$$$
>  <Molecule>
Cc1cccc(C[C@H](NC(=O)Nc2ccc(Cl)cc2F)C(=O)N[C@@H]2C(=O)N3CCC[C@H]3C(=O)N3CCSC[C@H]3C(=O)N[C@@H](C)C(=O)N3C[C@H](C)C[C@H]3C(=O)O[C@H]2C)c1 [Compound 38] ({NH(4-Cl-2-F-phenyl)-CO}-[Phe(3-Me)][aThr]P[X1]A[Pro(4R-Me)]; ester 2-C)

>  <AUC(0-t) / ng·h/mL>
13200

$$$$

The record that follows has no AUC(0-t) shown yet.
Q: Fill blank: measured AUC(0-t) of the molecule `Cc1cccc(C[C@H](NC(=O)Nc2ccc3c(c2)OCO3)C(=O)N[C@H]2COC(=O)[C@@H]3C[C@@H](C)CN3C(=O)[C@H](C)NC(=O)[C@@H]3CCCCN3C(=O)[C@@H]3CCCN3C2=O)c1` is ____.
Ans: 11700
